# testDetails: Tryptophan fluorescent binding assay
# testConditions: tryptophan fluorescence; 50 µM peptide, lipid titrated 0-5000 µM; phosphate buffered saline 1X, pH 7.4; values as lipid per peptide
Peptide text beside a SMILES is read from it.
# Lipid Concentration-induced 50% Peptide Binding (L/P), POPC Vesicle values compiled below
Entry rule: numbers only, all in L/P.

Solved entries:
CC(C)C[C@H](NC(=O)CN)C(=O)N[C@@H](CC(C)C)C(=O)N[C@@H](CCCCN)C(=O)N[C@@H](CC(C)C)C(=O)N[C@@H](CC(C)C)C(=O)N[C@@H](CCC(=O)O)C(=O)N[C@@H](CC(C)C)C(=O)N[C@@H](CC(C)C)C(=O)N[C@@H](CC(C)C)C(=O)N[C@@H](CCC(=O)O)C(=O)N[C@@H](C)C(=O)N[C@@H](C)C(=O)NCC(=O)N[C@@H](Cc1c[nH]c2ccccc12)C(N)=O [KEE] (H-GLLKLLELLLEAAGW-NH2) ... 0.20
CC(C)C[C@H](NC(=O)CN)C(=O)N[C@@H](CC(C)C)C(=O)N[C@@H](Cc1c[nH]cn1)C(=O)N[C@@H](CC(C)C)C(=O)N[C@@H](CC(C)C)C(=O)N[C@@H](CCC(=O)O)C(=O)N[C@@H](CC(C)C)C(=O)N[C@@H](CC(C)C)C(=O)N[C@@H](CC(C)C)C(=O)N[C@@H](CCCCN)C(=O)N[C@@H](C)C(=O)N[C@@H](C)C(=O)NCC(=O)N[C@@H](Cc1c[nH]c2ccccc12)C(N)=O [HEK] (H-GLLHLLELLLKAAGW-NH2) ... 0.44
CC(C)C[C@H](NC(=O)CN)C(=O)N[C@@H](CC(C)C)C(=O)N[C@@H](Cc1c[nH]cn1)C(=O)N[C@@H](CC(C)C)C(=O)N[C@@H](CC(C)C)C(=O)N[C@@H](CCCCN)C(=O)N[C@@H](CC(C)C)C(=O)N[C@@H](CC(C)C)C(=O)N[C@@H](CC(C)C)C(=O)N[C@@H](CCC(=O)O)C(=O)N[C@@H](C)C(=O)N[C@@H](C)C(=O)NCC(=O)N[C@@H](Cc1c[nH]c2ccccc12)C(N)=O [HKE] (H-GLLHLLKLLLEAAGW-NH2) ... 0.75
CC(C)C[C@H](NC(=O)CN)C(=O)N[C@@H](CC(C)C)C(=O)N[C@@H](Cc1c[nH]cn1)C(=O)N[C@@H](CC(C)C)C(=O)N[C@@H](CC(C)C)C(=O)N[C@@H](Cc1c[nH]cn1)C(=O)N[C@@H](CC(C)C)C(=O)N[C@@H](CC(C)C)C(=O)N[C@@H](CC(C)C)C(=O)N[C@@H](CCC(=O)O)C(=O)N[C@@H](C)C(=O)N[C@@H](C)C(=O)NCC(=O)N[C@@H](Cc1c[nH]c2ccccc12)C(N)=O [HHE] (H-GLLHLLHLLLEAAGW-NH2) ... 1.00
CC(C)C[C@H](NC(=O)CN)C(=O)N[C@@H](CC(C)C)C(=O)N[C@@H](CCC(=O)O)C(=O)N[C@@H](CC(C)C)C(=O)N[C@@H](CC(C)C)C(=O)N[C@@H](Cc1c[nH]cn1)C(=O)N[C@@H](CC(C)C)C(=O)N[C@@H](CC(C)C)C(=O)N[C@@H](CC(C)C)C(=O)N[C@@H](CCCCN)C(=O)N[C@@H](C)C(=O)N[C@@H](C)C(=O)NCC(=O)N[C@@H](Cc1c[nH]c2ccccc12)C(N)=O [EHK] (H-GLLELLHLLLKAAGW-NH2) ... 0.56

Would you kindly share the measured Lipid Concentration-induced 50% Peptide Binding (L/P), POPC Vesicle for CC(C)C[C@H](NC(=O)CN)C(=O)N[C@@H](CC(C)C)C(=O)N[C@@H](Cc1c[nH]cn1)C(=O)N[C@@H](CC(C)C)C(=O)N[C@@H](CC(C)C)C(=O)N[C@@H](CCC(=O)O)C(=O)N[C@@H](CC(C)C)C(=O)N[C@@H](CC(C)C)C(=O)N[C@@H](CC(C)C)C(=O)N[C@@H](Cc1c[nH]cn1)C(=O)N[C@@H](C)C(=O)N[C@@H](C)C(=O)NCC(=O)N[C@@H](Cc1c[nH]c2ccccc12)C(N)=O [HEH] (H-GLLHLLELLLHAAGW-NH2) ?
0.88

Would you kindly share the measured Lipid Concentration-induced 50% Peptide Binding (L/P), POPC Vesicle for CC(C)C[C@H](NC(=O)CN)C(=O)N[C@@H](CC(C)C)C(=O)N[C@@H](CCC(=O)O)C(=O)N[C@@H](CC(C)C)C(=O)N[C@@H](CC(C)C)C(=O)N[C@@H](CCCCN)C(=O)N[C@@H](CC(C)C)C(=O)N[C@@H](CC(C)C)C(=O)N[C@@H](CC(C)C)C(=O)N[C@@H](Cc1c[nH]cn1)C(=O)N[C@@H](C)C(=O)N[C@@H](C)C(=O)NCC(=O)N[C@@H](Cc1c[nH]c2ccccc12)C(N)=O [EKH] (H-GLLELLKLLLHAAGW-NH2) ?
0.75

Would you kindly share the measured Lipid Concentration-induced 50% Peptide Binding (L/P), POPC Vesicle for CC(C)C[C@H](NC(=O)CN)C(=O)N[C@@H](CC(C)C)C(=O)N[C@@H](CC(=O)O)C(=O)N[C@@H](CC(C)C)C(=O)N[C@@H](CC(C)C)C(=O)N[C@@H](Cc1c[nH]cn1)C(=O)N[C@@H](CC(C)C)C(=O)N[C@@H](CC(C)C)C(=O)N[C@@H](CC(C)C)C(=O)N[C@@H](Cc1c[nH]cn1)C(=O)N[C@@H](C)C(=O)N[C@@H](C)C(=O)NCC(=O)N[C@@H](Cc1c[nH]c2ccccc12)C(N)=O [DHH] (H-GLLDLLHLLLHAAGW-NH2) ?
0.67

Would you kindly share the measured Lipid Concentration-induced 50% Peptide Binding (L/P), POPC Vesicle for CC(C)C[C@H](NC(=O)CN)C(=O)N[C@@H](CC(C)C)C(=O)N[C@@H](CC(=O)O)C(=O)N[C@@H](CC(C)C)C(=O)N[C@@H](CC(C)C)C(=O)N[C@@H](CCC(=O)O)C(=O)N[C@@H](CC(C)C)C(=O)N[C@@H](CC(C)C)C(=O)N[C@@H](CC(C)C)C(=O)N[C@@H](Cc1c[nH]cn1)C(=O)N[C@@H](C)C(=O)N[C@@H](C)C(=O)NCC(=O)N[C@@H](Cc1c[nH]c2ccccc12)C(N)=O [DEH] (H-GLLDLLELLLHAAGW-NH2) ?
0.75
